# target-desc: lens aldose reductase (Bos taurus)
# Construct: the preparation of the enzyme from bovine lens; from tissue; host or cells: bovine lens
# experiment-notes: in vitro aldose reductase inhibition (modified Hayman and Kinoshita procedure)
# Type: biochemical
# run-conditions: 10^-5 molar; enzyme from bovine lens; read-out: % Inhibition at Different Molar Concentrations (in vitro)
Outcome: YES for inhibition at 10 µM of at least 90%; NO for anything lower.

These recorded examples may help you get a feel for the data.
O=C(O)CN1C(=S)c2cccc3c(Cl)cc(Cl)c1c23    YES
O=C(O)CN1C(=S)c2cccc3c(Br)ccc1c23    YES
CCOC(=O)CN1C(=S)c2cccc3cccc1c23    NO

Moving on to another molecule below.
Confirm if inhibition at 10 µM reported for the molecule `NCCOC(=O)CN1C(=S)c2cccc3cccc1c23` is 90% or above.
NO
